# Target Of Assay: E3 ubiquitin-protein ligase UHRF1 (Homo sapiens)
# Assay Protocol: blockers of UHRF1 binding to methyl-oligo – biochemical, TR-FRET, human UHRF1, single concentration, counter-screen for MBD2 inhibitor project, primary screen (AID 687016);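 also: UHRF1 SRA domain binding a hemimethylated CpG hairpin DNA probe; 0% = median of test compound wells and 100% = reference inhibitor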
# Condition Label: UHRF1 binding to methylated oligo, at 4.4 µM, stronger effect = higher value
Screen size: about 370,000 compounds; about 2,800 (0.76%) were called active. This excerpt belongs to a sample that is enriched for actives.
Reported Endpoint: inhibition

[[record]]
molecule = "COc1ccc(CCNC(=O)CCn2c(=O)c3ccccc3n(CC(=O)NCC3CCCO3)c2=O)cc1OC (centres undefined)"
observed = "2.05% (inactive)"

[[record]]
molecule = "COc1ccccc1C1=CC(=O)C[C@H](c2ccc(F)cc2)C1"
observed = "1.8% (inactive)"

[[record]]
molecule = "Cc1noc(C)c1NC(=O)Nc1cccc2c1O[C@H](CN(C)C(=O)Nc1ccccc1)[C@@H](C)CN([C@H](C)CO)C2=O"
observed = "-2.78% (inactive)"

[[record]]
molecule = "Cc1ccc(-n2c(SCC(=O)Nc3ccc(S(=O)(=O)Nc4nccs4)cc3)nnc2-c2ccncc2)cc1"
observed = "-0.73% (inactive)"

[[record]]
molecule = "Cc1ccc2nc3c(cc(C(=O)NCCc4ccccc4)c(=N)n3CC3CCCO3)c(=O)n2c1 (centres undefined)"
observed = "-6.46% (inactive)"

[[record]]
molecule = "O=C1C=C(c2cccc(Cl)c2O)C[C@@H](c2ccc(F)cc2)C1"
observed = "21% (active)"

[[record]]
molecule = "COc1cccc(C2=CC(=O)C[C@H](c3ccc(F)cc3)C2)c1OC"
observed = "-0.67% (inactive)"

[[record]]
molecule = "CCCCn1c(N)c(N(CC(C)C)C(=O)c2cnc(C)cn2)c(=O)[nH]c1=O"
observed = "-0.01% (inactive)"

[[record]]
molecule = "Cc1noc(C)c1NC(=O)Nc1ccc2c(c1)C(=O)N([C@H](C)CO)C[C@H](C)[C@@H](CN(C)C(=O)Nc1ccc(C(F)(F)F)cc1)O2"
observed = "-2.17% (inactive)"


---

# Target Of Assay: E3 ubiquitin-protein ligase UHRF1 (Homo sapiens) (UniProt Q96T88)
# Sequence (Q96T88 whole entry, looked up, the tested form may be a part): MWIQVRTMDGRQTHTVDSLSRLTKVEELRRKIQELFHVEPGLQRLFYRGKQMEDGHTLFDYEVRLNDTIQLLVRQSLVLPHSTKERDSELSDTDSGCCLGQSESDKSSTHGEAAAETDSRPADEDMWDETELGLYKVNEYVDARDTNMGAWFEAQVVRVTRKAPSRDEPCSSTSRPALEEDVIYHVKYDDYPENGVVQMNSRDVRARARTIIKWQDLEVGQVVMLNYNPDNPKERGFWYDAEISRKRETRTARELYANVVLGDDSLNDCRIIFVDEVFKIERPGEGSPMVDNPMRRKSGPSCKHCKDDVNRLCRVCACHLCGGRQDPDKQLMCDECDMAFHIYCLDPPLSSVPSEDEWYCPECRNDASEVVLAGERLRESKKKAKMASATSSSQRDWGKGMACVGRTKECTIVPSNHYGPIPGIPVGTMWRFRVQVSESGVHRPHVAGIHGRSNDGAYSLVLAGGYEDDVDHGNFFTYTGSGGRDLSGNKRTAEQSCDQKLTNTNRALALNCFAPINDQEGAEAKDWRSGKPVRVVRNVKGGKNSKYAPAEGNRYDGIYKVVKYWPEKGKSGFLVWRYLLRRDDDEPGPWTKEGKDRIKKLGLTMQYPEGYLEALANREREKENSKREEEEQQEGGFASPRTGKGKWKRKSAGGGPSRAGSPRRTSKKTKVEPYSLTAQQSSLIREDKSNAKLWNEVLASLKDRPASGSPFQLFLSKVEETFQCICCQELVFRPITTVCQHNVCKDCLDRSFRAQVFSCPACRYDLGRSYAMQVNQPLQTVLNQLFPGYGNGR
# Assay Protocol: blockers of UHRF1 binding to methyl-oligo – biochemical, TR-FRET, human UHRF1, single concentration, counter-screen for MBD2 inhibitor project, primary screen (AID 687016);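 also: UHRF1 SRA domain binding a hemimethylated CpG hairpin DNA probe; 0% = median of test compound wells and 100% = reference inhibitor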
# Condition Label: UHRF1 binding to methylated oligo, at 4.4 µM, stronger effect = higher value
Hit rate of the full screen: of about 370,000 compounds, about 2,800 (0.76%) were called active. What follows is part of a selection rich in actives, with near analogues and random picks from the rest.
Reported Endpoint: inhibition

[[record]]
compound = "C=CCN(C)CC#Cc1ccccc1"
observed = "1.63% (inactive)"

[[record]]
compound = "Cc1cc(C)cc(NC(=O)Cn2cnc3c(nnn3Cc3ccc(F)cc3)c2=O)c1"
observed = "0.23% (inactive)"

[[record]]
compound = "COC(=O)C1CN(CCc2ccccc2)CCS(=O)(=O)N1Cc1cccc(Cl)c1 (stereo not given)"
observed = "1.44% (inactive)"

[[record]]
compound = "O=C(OC12CCCN(C1)/C(=C/c1cccnc1)C2)C1CCCC1 (stereo not given)"
observed = "-1.46% (inactive)"

[[record]]
compound = "CCCCNC(=O)C[C@H]1C(=O)N(Cc2ccc(OC)cc2)C2=CCCC[C@@]21C(=O)OCC"
observed = "5.53% (inactive)"

[[record]]
compound = "CC(c1c[nH]c2ccccc12)c1c(-c2ccccc2)n(C)c2ccccc12 (stereo not given)"
observed = "1.29% (inactive)"

[[record]]
compound = "CCCCOCCCNC(=O)C[C@H]1C[C@@]2(C(=O)OC)C(=C[C@H](COCc3ccccc3)O[C@@H]2C)N(Cc2cccc3ccccc23)C1=O"
observed = "-3.11% (inactive)"

[[record]]
compound = "O=C(Cn1cnc2c(nnn2Cc2ccc(F)cc2)c1=O)NCc1ccc2c(c1)OCO2"
observed = "21.8% (active)"

[[record]]
compound = "COc1ccc(/C=C2\\CC3(OC(C)=O)CCCN2C3)cc1 (stereo not given)"
observed = "-2.63% (inactive)"

[[record]]
compound = "CCCCNC(=O)C[C@H]1C[C@@]2(C(=O)OC)C(=C[C@H](COCc3ccccc3)O[C@@H]2C)N(Cc2ccc(Cl)cc2Cl)C1=O"
observed = "1.55% (inactive)"

[[record]]
compound = "O=C(Cc1cccs1)NCc1cccc(C(F)(F)F)c1"
observed = "2.41% (inactive)"

[[record]]
compound = "CN1[C@H](Cc2ccccc2)COc2cccc(N3CCSCC3)c2S1(=O)=O"
observed = "6.46% (inactive)"

[[record]]
compound = "O=C(O)c1cc(S(=O)(=O)NC2CCCc3ccccc32)ccc1O (stereo not given)"
observed = "26.4% (active)"

[[record]]
compound = "CC(=O)OCCN1CCCC12CCC(c1ccccc1)CC2 (stereo not given)"
observed = "0.81% (inactive)"

[[record]]
compound = "COCCOC(=O)C1=C(C)NC(=O)NC1c1cc2c(cc1Br)OCO2 (stereo not given)"
observed = "0.79% (inactive)"

[[record]]
compound = "O=C(Nc1ccc(Br)cc1)OCCN1C(=O)CCC12CCC(c1ccccc1)CC2 (stereo not given)"
observed = "-4.19% (inactive)"

[[record]]
compound = "COC(=O)[C@]12C[C@H](CC(=O)NCc3ccccc3)C(=O)N(Cc3ccccc3)C1=C[C@H](COCc1ccccc1)O[C@@H]2C"
observed = "3.31% (inactive)"

[[record]]
compound = "Cc1cc(NS(=O)(=O)c2ccc(NC(=O)CSc3nnc(SCc4ccc(F)cc4)s3)cc2)nc(C)n1"
observed = "3.58% (inactive)"

[[record]]
compound = "Cc1ccccc1CN1CCCCC(NC(=O)c2cccc(C#N)c2)C1=O (stereo not given)"
observed = "-0.18% (inactive)"

[[record]]
compound = "CC(=O)C1=C(C)NC(=O)NC1c1ccc2c(c1)OCO2 (stereo not given)"
observed = "0.08% (inactive)"


Data provenance is PubChem BioAssay AID687016.
